# unfolding free energy per record follows
B1: Ribonuclease, P00648 (parent)
chain: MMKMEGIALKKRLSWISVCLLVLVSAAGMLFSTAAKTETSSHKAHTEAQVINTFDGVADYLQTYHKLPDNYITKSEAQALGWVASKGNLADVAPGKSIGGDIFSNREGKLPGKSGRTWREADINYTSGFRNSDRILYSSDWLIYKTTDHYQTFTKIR

# Variants of: B1
# measurement_parameters: Bacillus amyloliquefaciens; pH 6.3; 25 °C; Urea; Fluorescence; MES-NaOH 450 mM; reversible: yes; structure 1BNI; whole UniProt chain shown
The reply should be a number in kJ/mol, with the unit left off.

Examples from the recorded data:
[
  {
    "variant_label": "I123A",
    "unfolding free energy (kJ/mol)": 30
  },
  {
    "variant_label": "I135V",
    "unfolding free energy (kJ/mol)": 30
  },
  {
    "variant_label": "V83A",
    "unfolding free energy (kJ/mol)": 29.9
  },
  {
    "variant_label": "Y64A",
    "unfolding free energy (kJ/mol)": 29.9
  }
]

So what does the record say about unfolding free energy for T73A ? 29.9

Sourced from FireProtDB (doi:10.1016/0022-2836(92)90562-x)
